# Tested on: HT29 colon
# experiment: NCI-60 one-dose screen, 48 h
# condition notes: 10 µM unless noted
Compounds without any hit were thinned out: in the full panel of roughly 83,000, 20% have a hit. Active and inactive are the calls of the source. Rule for the calls: active = growth percent below 10; inactive = the rest.
Give your call using only these classes: active, inactive

Check out these entries, answers already filled in.
COc1cc2oc(-c3cccc(C(=O)Nc4ccc(Cl)cc4)c3)cc(=O)c2c(OCCNC(=O)[C@H](CO)NC(=O)OC(C)(C)C)c1OC	active
Cc1cc(C)cc(NC(=O)Cn2cc(COn3nnc4ccccc43)nn2)c1	inactive
COc1cc(-c2ccc(/C=N/NC(=O)c3[nH]c4ccc(Br)cc4c3-c3ccccc3)s2)cc(OC)c1OC	inactive
Cc1ccc(C(=O)NN2C(=O)/C(=C/C=C/c3ccc([N+](=O)[O-])o3)SC2=S)cc1	active
COc1c(F)ccc(C(=O)Nc2ccc3nc(NC(=O)C4CCCN(S(=O)(=O)c5ccc(Br)s5)C4)sc3c2)c1F (centres undefined)	inactive

Incoming: Kindly provide the recorded test outcome for the following compound: CC(C)CSc1nc(NCCc2c[nH]c3ccccc23)c(C#N)c(-c2ccc(Cl)cc2)n1
Outgoing: inactive

Incoming: Write down the call the test reported for this compound. Item: CCOC(=O)c1ccc(Nc2nc(NN)nc(-c3ccc(OC)cc3)c2C#N)cc1
Outgoing: inactive

Incoming: Please state the recorded outcome for this compound: O=C(/C=C/c1ccc(O)c(O)c1)NC1CCOC1O (centres undefined)
Outgoing: inactive

Incoming: Per the assay record, what outcome was assigned to CN(C)c1ccnc(CNCCSC2(c3ccccc3)c3ccccc3C=Cc3ccccc32)c1 ?
Outgoing: active

* * *

# Test system: SNB-19 CNS
# experiment: NCI-60 one-dose screen, 48 h
# condition notes: 10 µM unless noted
This is part of a sample that, as a whole, favours compounds with a hit. Of some 83,000 tested, about 20% had one in any assay. Calls of active or inactive are those of the source. Rule for the calls: active = growth percent below 10; inactive = the rest.
Please answer using one outcome listed in active, inactive

Take a look at these entries with their results.
CCOC(=O)C1=C(N)N(c2ccccc2)C2=C(C(=O)CC(C)(C)C2)C1c1ccccc1Cl (configuration not stated)	inactive
O=C(CSc1nc2ccccc2c(=O)[nH]1)NCCN1CCCCC1	inactive
Cc1ccc(S(=O)(=O)c2nc(S(=O)(=O)c3ccc(C)cc3)c(Cl)s2)cc1	inactive
CCOP(=O)(OCCCl)c1nc(-c2ccc(C)cc2)oc1NCc1ccccc1 (configuration not stated)	inactive
C#CCOc1cc(N(CC)CC)ccc1C(C(=O)NC(C)(C)C)N(C(=O)C1CCc2cc(F)ccc2O1)c1cc(C)cc(C)c1 (configuration not stated)	inactive
COc1cccc(COc2ccc(NC(=O)Nc3ccc(Cl)c(C(F)(F)F)c3)cc2)c1	inactive
CCCCn1c(O)c(N=Nc2nc(-c3cc4ccccc4oc3=O)cs2)c2cc(Br)ccc21	inactive
O=C(Nc1cccc(-n2cnc3cc(-c4ccc(O)cc4)ccc32)c1)C1CC1	inactive

Incoming: // return assay outcome for COc1cc2c3c(n(CCCN4CCC[C@@H]4CO)c(=O)c2cc1OC)-c1cc2c(cc1C3=O)OCO2
Outgoing: active

Incoming: What call does the record list for CC(=O)Oc1ccccc1C(=O)[Se]C(=NC1CCCCC1)NC1CCCCC1 ?
Outgoing: active

Incoming: Test call, this compound: CCOC(=O)C1=C(N)N(c2ccccc2)C2=C(C(=O)CC(C)(C)C2)C1c1ccc(N2CCOCC2)cc1 (configuration not stated)
Outgoing: inactive

Incoming: Hi, do you know how O=C(NNc1nc2cc(F)ccc2n2c(CN3CC4CNCC4C3)ccc12)c1ccncn1 (configuration not stated) came out in this test?
Outgoing: inactive
